Origin of measurements: ChEMBL document CHEMBL1149351

molecular target: C-C chemokine receptor type 2 (Homo sapiens, UniProt P41597); assay: Activity at CCR2b by calcium flux based FLIPR assay in CHO cells; assay type: functional, cell-based
Sequence (P41597 whole entry): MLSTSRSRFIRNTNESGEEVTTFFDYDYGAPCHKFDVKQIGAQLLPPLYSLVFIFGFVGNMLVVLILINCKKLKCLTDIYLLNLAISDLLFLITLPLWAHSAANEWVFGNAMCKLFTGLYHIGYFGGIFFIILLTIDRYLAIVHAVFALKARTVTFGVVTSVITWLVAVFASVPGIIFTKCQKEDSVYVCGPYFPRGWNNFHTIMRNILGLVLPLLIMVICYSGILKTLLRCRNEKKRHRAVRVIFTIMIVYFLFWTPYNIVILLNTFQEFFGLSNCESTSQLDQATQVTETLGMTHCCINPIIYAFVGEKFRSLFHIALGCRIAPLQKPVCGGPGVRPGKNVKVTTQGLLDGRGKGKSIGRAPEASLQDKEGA
Measured Parameter: IC50

smiles_notation=C[C@H]1CN(CC[C@H](CC2CC2)C(=O)NCc2cc(C(F)(F)F)cc(C(F)(F)F)c2)CC[C@@]12C=Cc1ccccc12 measured_parameter=IC50 result_value="3 nM"
smiles_notation=C[C@H]1CN(CC[C@H](C(=O)NCc2cc(C(F)(F)F)cc(C(F)(F)F)c2)C2CC2)CC[C@@]12C=Cc1ccccc12 measured_parameter=IC50 result_value="4 nM"
smiles_notation=C[C@H]1CN(CC[C@H](C(=O)NCc2cc(C(F)(F)F)cc(C(F)(F)F)c2)C2CCC2)CC[C@@]12C=Cc1ccccc12 measured_parameter=IC50 result_value="11 nM"
